Source listed as PubChem BioAssay (NCI).

Recorded TGI by entry
tested on: RXF-631 renal; test: NCI tumour cell line growth inhibition, 48 h
// units = µM; emit number, no label

CC(C)NC(=O)O/N=C1\CCC2[C@@H]3CC=C4C[C@@H](OC(=O)NC(C)C)CC[C@]4(C)C3CC[C@]12C (stereo not given in full) :: 3.57

Then there is this compound:
Query: Note down TGI recorded for "O=C1c2ccccc2C(=O)c2sc(Nc3ccc(Cl)c(Cl)c3)nc21"
Result: 31.4

---

Recorded TGI by entry
tested on: MDA-MB-435; assay: NCI tumour cell line growth inhibition, 48 h

# example entries with known answers
CC1(C)S[C@@H]2[C@H](NC(=O)/C=C/c3ccccc3)C(=O)N2[C@H]1C(=O)O :: > 100 µM
Cc1cc(Br)cc(C)c1NC(=O)C(=O)C1C(=O)C(CC2C(=O)c3ccccc3C2=O)C(=O)CC1(C)C (configuration not stated) :: > 100 µM
CCOC(=O)CC(N1CC1)N1CC1 :: > 10 µM
c1ccc2c3nnc(c2c1)SCCSCCCSCCS3 :: > 100 µM
CC(C)CNc1nc(N=[N+]=[N-])nc(NCC(C)C)n1 :: > 10 µM

Then there is this molecule:
Query: Note down TGI recorded for CCOC(=O)CCC(NC(=O)c1ccc(Oc2nc3ccccc3nc2C(=O)OCC)cc1)C(=O)OCC (configuration not stated)
Result: > 100 µM
